- Target Under Test: MUSK (human) (UniProt O15146)
- Sequence (O15146 whole entry, looked up): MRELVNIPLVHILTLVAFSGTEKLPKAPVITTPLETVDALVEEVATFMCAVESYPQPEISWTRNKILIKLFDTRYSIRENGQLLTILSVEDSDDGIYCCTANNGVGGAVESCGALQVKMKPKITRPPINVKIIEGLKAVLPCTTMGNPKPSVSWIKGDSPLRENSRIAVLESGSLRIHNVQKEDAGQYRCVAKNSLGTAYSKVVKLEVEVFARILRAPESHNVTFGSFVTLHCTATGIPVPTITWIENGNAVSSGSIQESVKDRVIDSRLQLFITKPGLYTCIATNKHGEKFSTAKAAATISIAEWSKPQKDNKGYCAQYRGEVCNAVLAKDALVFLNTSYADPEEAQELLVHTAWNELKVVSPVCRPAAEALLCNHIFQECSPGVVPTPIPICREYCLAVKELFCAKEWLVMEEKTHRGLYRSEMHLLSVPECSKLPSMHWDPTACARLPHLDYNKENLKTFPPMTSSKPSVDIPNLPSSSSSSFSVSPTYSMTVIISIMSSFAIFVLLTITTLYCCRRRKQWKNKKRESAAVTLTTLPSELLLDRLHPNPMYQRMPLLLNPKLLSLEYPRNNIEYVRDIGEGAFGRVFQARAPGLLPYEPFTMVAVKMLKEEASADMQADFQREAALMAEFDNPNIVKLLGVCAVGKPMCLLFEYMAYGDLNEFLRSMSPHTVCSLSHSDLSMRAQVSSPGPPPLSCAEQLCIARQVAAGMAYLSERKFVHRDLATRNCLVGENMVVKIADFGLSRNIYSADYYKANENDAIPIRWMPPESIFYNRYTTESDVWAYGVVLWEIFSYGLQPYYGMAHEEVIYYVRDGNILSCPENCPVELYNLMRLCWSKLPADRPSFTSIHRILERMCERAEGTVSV
- Procedure Details: KINOMEscan competition binding
- Conditions Used: compound 10.0 µM
Simple rule here: kinase still bound, per cent of control less than 90% is 1, otherwise 0.

Compound	Assigned Label
COc1cc(C(=O)NC2CCN(C)CC2)ccc1Nc1ncc2c(n1)N(C1CCCC1)C(C)CC(=O)N2C (centres undefined)	0
C=CC(=O)Nc1cccc(Nc2nc(N[C@H]3CC[C@H](N(C)C)CC3)nc3c2ncn3C(C)C)c1	1
COc1cc(C(=O)NC2CCN(C)CC2)ccc1Nc1ncc2c(n1)N(C1CCCC1)CCC(=O)N2C(C)C	0
OCCCNc1cc(-c2ccnc(Nc3cccc(Cl)c3)n2)ccn1	0
CCOc1cc2ncc(C#N)c(Nc3ccc(OCc4ccccn4)c(Cl)c3)c2cc1NC(=O)/C=C/CN(C)C	0
O=C(NOC[C@H](O)CO)c1ccc(F)c(F)c1Nc1ccc(I)cc1F	1
C=CC(=O)Nc1cc(NC(=O)c2ccc(C)c(NC(=O)c3ccno3)c2)cc(C(F)(F)F)c1	0
CCN1CCN(Cc2ccc(Nc3ncc4c(n3)N(C)c3ccccc3C(=O)N4C)cc2C(F)(F)F)CC1	0

Now for a further compound.
query: kinase still bound, per cent of control strictly < 90% for this compound? CCCS(=O)(=O)Nc1ccc(F)c(C(=O)c2c[nH]c3ncc(-c4ccc(Cl)cc4)cc23)c1F
result: 0
